PROPERTY_MEASURED: melting point (°C)
Numeric only. Scale: °C

Query block: What does the data say about its melting point? Entry: CCSc1ccc2c(c1)N(CCCN1CCN(C)CC1)c1ccccc1S2
Result block: 63

Query block: What does the data say about its melting point? Entry: CCCOC(=O)C1=C(C)NC(C)=C(C(=O)OCCC)C1c1ccco1
Result block: 112

Query block: What does the data say about its melting point? Entry: Cc1cc(C(=O)O)ccc1Br
Result block: 216

Query block: What does the data say about its melting point? Entry: CC1CC2C3CC(F)C4=CC(=O)C=CC4(C)C3C(O)CC2(C)C1C(=O)CO (stereo unspecified)
Result block: 188

Query block: What does the data say about its melting point? Entry: O=C1/C(=N/Nc2cccc(C(F)(F)F)c2)C(C(F)(F)F)=NN1c1ccccc1
Result block: 160

Query block: What does the data say about its melting point? Entry: CC(=O)Nc1cc(NS(=O)(=O)C(F)(F)F)c(C)cc1C
Result block: 184

Query block: What does the data say about its melting point? Entry: CCCCCCCCC=CCCCCCCCC(=O)Nc1ccccc1
Result block: 41

====

PROPERTY_MEASURED: melting point (°C)
Numeric only. Scale: °C

Query block: What does the data say about its melting point? Entry: Cn1nc(C(=O)Cl)c2ccccc21
Result block: 126

Query block: What does the data say about its melting point? Entry: CC(C(=O)O)c1ccc(C2CCCC(=NO)C2)cc1 (configuration not stated)
Result block: 178

Query block: What does the data say about its melting point? Entry: CCF
Result block: -143

Query block: What does the data say about its melting point? Entry: COC(=O)C1Cc2ccccc2C(=O)C1C(=O)OC (configuration not stated)
Result block: 88

Query block: What does the data say about its melting point? Entry: CCOC(=O)C#Cc1cccc(C#CC(=O)OCC)c1
Result block: 56

====

For each entry below, report its melting point value.

Query block: What does the data say about its melting point? Entry: COc1ccc(CC#N)cc1F
Result block: 48 °C

Query block: What does the data say about its melting point? Entry: CC(C)(C)OC(=O)NC(Cc1ccc(OCc2ccccc2)cc1)C(=O)O (stereo unspecified)
Result block: 109 °C

Query block: What does the data say about its melting point? Entry: CCOC(=O)c1sc(SCc2ccccc2)c2c1CCCC2=O
Result block: 139 to 141 °C

Query block: What does the data say about its melting point? Entry: NS(=O)(=O)c1ccc2ccccc2c1
Result block: 219 °C

Query block: What does the data say about its melting point? Entry: CS(=O)(=O)Nc1ccc([N+](=O)[O-])cc1Oc1ccccc1
Result block: 144 °C

Query block: What does the data say about its melting point? Entry: CC(CC(C(N)=O)(c1ccccc1)c1ccccn1)N(C)C (stereo unspecified)
Result block: 156 °C

Query block: What does the data say about its melting point? Entry: Cc1cc([N+](=O)[O-])cc(Br)c1N
Result block: 177 to 183 °C

Query block: What does the data say about its melting point? Entry: O=C(O)c1ccc(-c2ccccn2)s1
Result block: 231 to 233 °C

Query block: What does the data say about its melting point? Entry: Cc1nc(-c2ccc(C(F)(F)F)cc2)sc1S(=O)(=O)Cl
Result block: 93 to 94 °C

Query block: What does the data say about its melting point? Entry: CC12CCC(=O)CC1CCC1C2CCC2(C)C1CCC21OCCS1 (stereo unspecified)
Result block: 201 °C

Query block: What does the data say about its melting point? Entry: CCOC(=O)c1ccc(N/C=C2\C(=O)C3(C)CCC2C3(C)C)cc1 (stereo unspecified)
Result block: 105 °C

====

For each entry below, report its melting point value.
Numeric only. Scale: °C

Query block: What does the data say about its melting point? Entry: CCCCCCCCOC(=O)CCCCCC
Result block: -22.5

Query block: What does the data say about its melting point? Entry: CN(C)c1ccc(N=O)cc1
Result block: 92.5

Query block: What does the data say about its melting point? Entry: COc1ccc(CCc2cc(OC)c3ccccc3n2)cc1OC
Result block: 116

Query block: What does the data say about its melting point? Entry: CCCCC(CC)C(=O)O (configuration not stated)
Result block: -59

Query block: What does the data say about its melting point? Entry: O=C1C(c2cccc3ccccc23)=[N+]([O-])c2cc([N+](=O)[O-])ccc21
Result block: 223

Query block: What does the data say about its melting point? Entry: Clc1cc2c(cc1Cl)Oc1ccccc1O2
Result block: 163

Query block: What does the data say about its melting point? Entry: COc1ccc(C2Nn3c(nnc3-c3ccc([N+](=O)[O-])cc3)S2)cc1 (configuration not stated)
Result block: 153

Query block: What does the data say about its melting point? Entry: CCCCCCCCCCCCCCCCN
Result block: 46.8

====

For each entry below, report its melting point value.
Numeric only. Scale: °C

Query block: What does the data say about its melting point? Entry: Cc1csc(C)c1C
Result block: -26.2

Query block: What does the data say about its melting point? Entry: O=[N+]([O-])c1ccc(Cc2ccncc2)cc1
Result block: 71

Query block: What does the data say about its melting point? Entry: COC(=O)c1cc(Oc2ccc(Cl)cc2Cl)ccc1[N+](=O)[O-]
Result block: 87

Query block: What does the data say about its melting point? Entry: CCCCCCCCCCCCCCCCCCCCCCCCCCCCCCO
Result block: 88

Query block: What does the data say about its melting point? Entry: O=C1OC(=Cc2ccccc2)c2ccccc21
Result block: 100

Query block: What does the data say about its melting point? Entry: O=C1c2ccccc2C1Cl (stereo not given)
Result block: 67

Query block: What does the data say about its melting point? Entry: O=C(C=NNc1ccccc1)c1ccc(C(=O)C=NNc2ccccc2)cc1
Result block: 210

Query block: What does the data say about its melting point? Entry: c1cncc(C2CCCCN2)c1 (stereo not given)
Result block: 9

Query block: What does the data say about its melting point? Entry: Nc1nc(CC(=O)O)cs1
Result block: 118

Query block: What does the data say about its melting point? Entry: O=C(Cc1ccccc1)c1ccc2c3c(cccc13)CC2
Result block: 114

Query block: What does the data say about its melting point? Entry: COc1ccc(C2Cc3ccccc3C(=O)O2)cc1 (stereo not given)
Result block: 108

Query block: What does the data say about its melting point? Entry: NS(=O)(=O)c1cccc([N+](=O)[O-])c1
Result block: 167

Query block: What does the data say about its melting point? Entry: c1ccc2c(c1)C1c3ccccc3C2c2ccccc21
Result block: 254

Query block: What does the data say about its melting point? Entry: O=C(S)c1ccccc1
Result block: 24

Query block: What does the data say about its melting point? Entry: NC(=O)Oc1ccc(Cc2ccccc2)cc1
Result block: 148

Query block: What does the data say about its melting point? Entry: Cc1cc2c(C#N)c3sc4ccccc4n3c(=O)c2c(C)n1
Result block: 287

Query block: What does the data say about its melting point? Entry: CCCCOCOCCCC
Result block: -58.1

Query block: What does the data say about its melting point? Entry: c1ccc2c(c1)cc1c3ccccc3c3cccc4ccc2c1c43
Result block: 234

Query block: What does the data say about its melting point? Entry: CC(C)COC(=O)C(C)Oc1ccc(Oc2ccc(Cl)cc2)cc1 (stereo not given)
Result block: 39.5

Query block: What does the data say about its melting point? Entry: N#Cc1cc(F)ccc1Cl
Result block: 84

Query block: What does the data say about its melting point? Entry: O=C(OCC1c2ccccc2-c2ccccc21)Oc1c(F)c(F)c(F)c(F)c1F
Result block: 85

Query block: What does the data say about its melting point? Entry: Clc1cc2c(cc1Cl)Oc1c(cc(Cl)c(Cl)c1Cl)O2
Result block: 240

Query block: What does the data say about its melting point? Entry: COC(=O)Cc1c(Cl)[nH]c(C)c1C(=O)OC
Result block: 86

Query block: What does the data say about its melting point? Entry: Cc1cc(C)c(C)c(CO)c1C
Result block: 112

Query block: What does the data say about its melting point? Entry: FC(F)(F)c1nn(CN2CCN(Cn3nc(C(F)(F)F)n(N=Cc4ccc5c(c4)OCO5)c3=S)CC2)c(=S)n1N=Cc1ccc2c(c1)OCO2
Result block: 156

Query block: What does the data say about its melting point? Entry: CN(C)CCN
Result block: -70

Query block: What does the data say about its melting point? Entry: OC1CCCCCCCCCCCCCC1
Result block: 80.5

Query block: What does the data say about its melting point? Entry: CC(C)(OCc1ccc(-c2ccc(Cl)cc2)cc1)C(=O)O
Result block: 154

Query block: What does the data say about its melting point? Entry: NCCN(CCN)CCN
Result block: -16

Query block: What does the data say about its melting point? Entry: NC(=S)c1ccc2occc2c1
Result block: 98.6

Query block: What does the data say about its melting point? Entry: NCCCNCCCN
Result block: -14

Query block: What does the data say about its melting point? Entry: CC(=O)Cc1ccccc1C(=O)OCC(=O)N(C)CCO
Result block: 70.5

Query block: What does the data say about its melting point? Entry: CC(C(=O)O)c1ccc(C(=O)c2ccccc2)s1 (stereo not given)
Result block: 96

Query block: What does the data say about its melting point? Entry: CN(C)c1ccc(C(=O)C(=O)c2ccc(N(C)C)cc2)cc1
Result block: 202

Query block: What does the data say about its melting point? Entry: Nc1ccc(C(=O)NC(CCC(=O)O)C(=O)O)cc1 (stereo not given)
Result block: 173

Query block: What does the data say about its melting point? Entry: O=C(c1ccc2ccccc2c1)C(O)c1ccccc1 (stereo not given)
Result block: 152

Query block: What does the data say about its melting point? Entry: CCS(=O)(=O)c1nnc(N(C)C(=O)NC)s1
Result block: 156
